// reported relative viability per item
Tested on: HCC-78
Assay: relative viability (nuclei count vs DMSO), 5 days (fraction); higher = more cells survive
Conditions: first compound 0.6325 µM
Just the number.

Molecule	relative viability
CN1CCN(CCOc2cc(OC3CCOCC3)c3c(Nc4c(Cl)ccc5c4OCO5)ncnc3c2)CC1 [Saracatinib] + Cc1nc(Nc2ncc(C(=O)Nc3c(C)cccc3Cl)s2)cc(N2CCN(CCO)CC2)n1 [Dasatinib] (partner 0.075 µM)	0.421
CN1CCN(CCOc2cc(OC3CCOCC3)c3c(Nc4c(Cl)ccc5c4OCO5)ncnc3c2)CC1 [Saracatinib] + CC(=O)Nc1cccc(-n2c(=O)n(C3CC3)c(=O)c3c(Nc4ccc(I)cc4F)n(C)c(=O)c(C)c32)c1 [Trametinib] (partner 0.02 µM)	0.869

Ask | Lab note: need relative viability for Cc1csc(=NC2CCCCC2)n1/N=C/c1ccc(O)c(O)c1O [MIM1] + COc1cccc2cc(-c3nc([C@H]4CC[C@H](C(=O)O)CC4)n4ncnc(N)c34)[nH]c12 [OSI-027] (partner 0.5 µM) on HCC-78, anyone have it?
Reply | 0.356

Ask | Find relative viability (HCC-78) for the entry CN1CCN(CCOc2cc(OC3CCOCC3)c3c(Nc4c(Cl)ccc5c4OCO5)ncnc3c2)CC1 [Saracatinib] + N=C(N)NC(=N)NCCc1ccccc1 [Phenformin] (partner 250 µM)
Reply | 0.772

Ask | Param readout = relative viability; param system = HCC-78; param query = CN1CCN(CCOc2cc(OC3CCOCC3)c3c(Nc4c(Cl)ccc5c4OCO5)ncnc3c2)CC1 [Saracatinib] + COc1cc2c(Oc3ccc(NC(=O)C4(C(=O)Nc5ccc(F)cc5)CC4)cc3F)ccnc2cc1OCCCN1CCOCC1 [Foretinib] (partner 0.25 µM) ; response: value
Reply | 0.678

Ask | Report relative viability for CN1CCN(CCOc2cc(OC3CCOCC3)c3c(Nc4c(Cl)ccc5c4OCO5)ncnc3c2)CC1 [Saracatinib] + CC1(C)CCC(c2ccc(Cl)cc2)=C(CN2CCN(c3ccc(C(=O)NS(=O)(=O)c4ccc(N[C@H](CCN5CCOCC5)CSc5ccccc5)c(S(=O)(=O)C(F)(F)F)c4)cc3)CC2)C1 [Navitoclax] (partner 0.5 µM) tested on HCC-78.
Reply | 1.08

* * *

System: COR-L23
Assay: relative viability (nuclei count vs DMSO), 5 days (fraction); higher = more cells survive
Conditions: first compound 0.02 µM
Listing of entries alongside the reported relative viability.
A bare number is all that is needed in reply.

// worked examples, relative viability included
Compound	relative viability
CCNC(=O)c1noc(-c2cc(C(C)C)c(O)cc2O)c1-c1ccc(CN2CCOCC2)cc1 [Luminespib] + CS(=O)(=O)N1CCN(Cc2cc3nc(-c4cccc5[nH]ncc45)nc(N4CCOCC4)c3s2)CC1 [Pictilisib] (partner 1 µM)	0.368
CN1CCN(CCOc2cc(OC3CCOCC3)c3c(Nc4c(Cl)ccc5c4OCO5)ncnc3c2)CC1 [Saracatinib] + CC(C)C[C@H](NC(=O)[C@H](Cc1ccccc1)NC(=O)c1cnccn1)B(O)O [Bortezomib] (partner 0.002 µM)	0.98
CN1CCN(CCOc2cc(OC3CCOCC3)c3c(Nc4c(Cl)ccc5c4OCO5)ncnc3c2)CC1 [Saracatinib] + C[C@]1(O)C[C@@H](c2nc(-c3ccc4ccc(-c5ccccc5)nc4c3)c3c(N)nccn32)C1 [Linsitinib] (partner 1 µM)	0.86

Attention now shifts to the item below.
Ask | Entry under review: CCNC(=O)c1noc(-c2cc(C(C)C)c(O)cc2O)c1-c1ccc(CN2CCOCC2)cc1 [Luminespib] + CS(=O)(=O)CCNCc1ccc(-c2ccc3ncnc(Nc4ccc(OCc5cccc(F)c5)c(Cl)c4)c3c2)o1 [Lapatinib] (partner 2 µM) . Reported relative viability?
Reply | 0.924

Data provenance: the supplement of paper PMC10307832
